Data provenance is patent US7094909B2.

target-or-test-system: HIV-1 protease (Q7S mutant form) (Human immunodeficiency virus type 1 group M subtype B, UniProt P04585, Q495S)
Construct: made in house
protocol-description: HIV-1 Protease RET assay
Assay type: biochemical
run-conditions: Ki, unit inferred
The reader will find reported log10 Ki values listed item by item below.
Lab note - Ki converted to log10 from values in nM.

Record excerpt, results attached:
{"compound": "Cc1ccccc1CNC(=O)[C@H]1N(C(=O)[C@@H](O)[C@H](Cc2ccccc2)NC(=O)C2CCCN(C(=O)OC(C)(C)C)C2)CSC1(C)C (stereo partly drawn)", "log10 Ki": 2.07}
{"compound": "CCC(=O)NC(Cc1ccccc1)[C@H](O)C(=O)N1CSC(C)(C)C1C(=O)NCc1ccccc1C (stereo partly drawn)", "log10 Ki": 0.92}
{"compound": "COc1cccc(CNC(=O)[C@H]2N(C(=O)[C@@H](O)[C@H](Cc3ccccc3)NC(=O)OC(C)(C)C)CSC2(C)C)c1", "log10 Ki": 1.83}
{"compound": "CCc1cccc(CNC(=O)[C@H]2N(C(=O)[C@@H](O)[C@H](Cc3ccccc3)NC(=O)NCc3ccc(OC)cc3)CSC2(C)C)c1", "log10 Ki": 1.77}
{"compound": "CC#CC(C)OC(=O)NC(Cc1ccccc1)[C@H](O)C(=O)N1CSC(C)(C)[C@H]1C(=O)NCc1ccccc1C (stereo partly drawn)", "log10 Ki": 1.46}
{"compound": "Cc1ccccc1CNC(=O)[C@H]1N(C(=O)[C@@H](O)[C@H](Cc2ccccc2)NC(=O)C(C)CN)CSC1(C)C (stereo partly drawn)", "log10 Ki": 2.20}
{"compound": "Cc1ccccc1CNC(=O)[C@H]1N(C(=O)[C@@H](O)[C@H](Cc2ccccc2)NC(=O)C(C)(C)CN)CSC1(C)C", "log10 Ki": 1.27}
{"compound": "Cc1ccccc1CNC(=O)[C@@H]1CCCCN1C(=O)[C@@H](O)[C@H](Cc1ccccc1)NC(=O)c1cccc(O)c1C", "log10 Ki": 1.71}

Next, consider the following compound.
Q: Given the compound Cc1ccc(C(=O)N[C@@H](Cc2ccccc2)[C@H](O)C(=O)N2CSC(C)(C)C2C(=O)N[C@@H]2C=CCCC2)c(C)c1O (stereo partly drawn) , what is its reported log10 Ki?
A: -0.89
